Data origin, for the record: ChEMBL document CHEMBL3091453

Tested on: A2780
assay.text: Antiproliferative activity against human A2780 cells after 2 days by Alamar Blue assay
Format: functional, cell-based
measurement.parameters: A2780, 48 h
pIC50: −log10 of the molar value.
Use 5 as the dividing line for pIC50, with the line itself on the label 1 side and lower values as label 0.

molecule	cat
COc1cc(O)cc(/C=C/c2ccc(O)c(O)c2)c1	label 0
Oc1ccc(/C=C/c2cc(O)cc(O)c2)cc1 [RESVERATROL]	label 0
Oc1cc(O)cc(/C=C/c2ccc(O)c(O)c2)c1 [PICEATANNOL]	label 0
CC(=O)O[C@H]1C(=O)[C@@]2(C)[C@H]([C@H](OC(=O)c3ccccc3)[C@]3(O)C[C@H](OC(=O)[C@H](O)[C@@H](NC(=O)c4ccccc4)c4ccccc4)C(C)=C1C3(C)C)[C@]1(OC(C)=O)CO[C@@H]1C[C@@H]2O [PACLITAXEL]	label 1

* * *

Test system: Plasmodium falciparum
assay.text: Antimalarial activity against chloroquine/mefloquine-resistant Plasmodium falciparum Dd2 after 72 hrs by SYBR Green I assay
Format: functional
measurement.parameters: Dd2, 72 h
pIC50: −log10 of the molar value.
readout.type: pIC50

                                 smiles_str  target_or_test_system  recorded_result
0        COc1cc(O)cc(/C=C/c2ccc(O)c(O)c2)c1  Plasmodium falciparum             4.57
1       COc1ccc(/C=C2\COc3cc(O)ccc3C2=O)cc1  Plasmodium falciparum             4.59
2  COC1=CC(=O)c2c(O)c(C(C)=O)c(C)c(O)c2C1=O  Plasmodium falciparum             4.62
3  C[C@@H]1CC[C@H]2[C@@H](C)C(=O)O[C@@H]3O[C@@]4(C)CC[C@@H]1[C@]32OO4  Plasmodium falciparum             8.15
